The values you see were collected from patent US6465625B1.

- assay_summary: solubility in water
- measurement_conditions: water
endpoint_name: solubility

Lab note: measured solubility of CC(=O)O[C@H]1C(=O)[C@@]2(C)[C@H]([C@H](OC(=O)c3ccccc3)[C@]3(O)C[C@H](OC(=O)[C@H](O)[C@@H](NC(=O)c4ccccc4)c4ccccc4)C(C)=C1C3(C)C)[C@]1(OC(C)=O)CO[C@@H]1C[C@@H]2O [taxol] was < 4 µg/mL
